# procedure_summary: Inhibition of bovine heart NADH oxidase activity using submitochondrial particle as source of enzyme measured after 4 mins
# Assay type: mitochondria, Bos taurus, Mitochondria
Answer each item with its documented IC50.
Note: unit nM is implicit; provide only the numeric part.

Data request: What value of IC50 has been recorded for this entry: Cc1ccc(S(=O)(=O)N2CCC[C@@H]2COCOC[C@H]2CCCN2S(=O)(=O)c2ccc(C)cc2)cc1
Data returned: 3100

Data request: Recorded IC50 of Cc1ccc(S(=O)(=O)N(C)CCOCOCCN(C)S(=O)(=O)c2ccc(C)cc2)cc1 , please.
Data returned: 6400

Data request: Suppose we examine the compound Cc1ccc(S(=O)(=O)N2CCC[C@H]2COCOCc2ccccc2)cc1 ; what IC50 value has been reported?
Data returned: 4600

Data request: Please look up its IC50: CCCCCc1ccc(S(=O)(=O)N2CCC[C@H]2COCOC[C@@H]2CCCN2S(=O)(=O)c2ccc(CCCCC)cc2)cc1
Data returned: 150

Data request: // lookup IC50 for Cc1ccc(S(=O)(=O)N2CC[C@H]2COCOC[C@@H]2CCN2S(=O)(=O)c2ccc(C)cc2)cc1
Data returned: 870

Data request: Consider the compound CCCCCCCCCCS(=O)(=O)N1CCC[C@H]1COCOC[C@@H]1CCCN1S(=O)(=O)CCCOc1ccc(I)cc1 and give its measured IC50.
Data returned: 17

Data request: I would be grateful if you could share the reported IC50 for CC1(CCCCCCCCS(=O)(=O)N2CCC[C@H]2COCOC[C@@H]2CCCN2S(=O)(=O)CCCOc2ccc(I)cc2)N=N1 .
Data returned: 16

Hello, the source for this data is ChEMBL document CHEMBL5223190, in case you need it.
